Taken from patent US5559101A.

Listed next: entries and their corresponding % SURVIVAL TUMOR.
Test system: OM-1 (colon)
Assay: Radiometric growth inhibition of tumor cells, OM-1
Type: cell-based, human
Details: OM-1; continuous exposure
Give the number first and the unit second.

Examples with answers:
Nc1ccn([C@H]2O[C@@H](CO)[C@H](O)[C@@H]2O)c(=O)n1 :: 39.2%
NC1=N[C@H]2O[C@@H](CO)[C@H](O)[C@H]2O1 :: 41.3%
Nc1nc(O)c2ncn([C@H]3O[C@@H](CO)[C@H](O)[C@@H]3O)c2n1 :: 44.7%
O=c1[nH]c(=O)n([C@@H]2O[C@@H](CO)[C@H](O)[C@@H]2O)cc1F :: 0.4%
NC1=N[C@@H]2O[C@@H](CO)[C@H](O)[C@@H]2O1 :: 2.6%
O=c1[nH]c(=O)n([C@H]2O[C@@H](CO)[C@H](O)[C@@H]2O)cc1F :: 71.9%
O=c1[nH]c(=S)ccn1[C@@H]1C[C@@H](O)[C@H](CO)O1 :: 82.3%
O=c1[nH]cnc2c1ncn2[C@H]1O[C@@H](CO)[C@H](O)[C@@H]1O :: 87.3%

% SURVIVAL TUMOR measured on O=c1ccn2c(n1)O[C@H]1[C@@H](O)[C@H](CO)O[C@H]12 = 46.4%

% SURVIVAL TUMOR measured on O=C(OC[C@@H]1O[C@H](n2ccc(=S)[nH]c2=O)C[C@H]1OC(=O)c1ccccc1)c1ccccc1 = 35.7%

---

System: SKLU (lung)
Test: Radiometric growth inhibition of tumor cells, SKLU
Assay type: cell-based, human
Settings: human, sklu lung tumor cells
experimentalReadout: % SURVIVAL TUMOR (%)
# unit: % | format: bare number

Examples with answers:
O=c1[nH]c(=O)n([C@@H]2C[C@@H](O)[C@H](CO)O2)cc1F :: 86.2
O=c1[nH]cc(F)c(=O)[nH]1 [Example 5-FU, 5-fluorouracil, reference compound] :: 5.0
Cc1cn([C@@H]2C[C@@H](O)[C@H](CO)O2)c(=O)[nH]c1=O :: 72.4

% SURVIVAL TUMOR measured on Nc1nc(S)c2ncn([C@H]3O[C@@H](CO)[C@H](O)[C@@H]3O)c2n1 = 45.1

---

Test system: OM-1 (colon)
Experiment: Radiometric growth inhibition of tumor cells, OM-1
Type: cell-based, human
Conditions: human, om-1 colon tumor cells
Listed next: entries and their corresponding % SURVIVAL TUMOR.
# unit: % | format: bare number

Examples with answers:
Nc1nc(S)c2ncn([C@H]3O[C@@H](CO)[C@H](O)[C@@H]3O)c2n1 :: 83.1
Cc1cn([C@@H]2C[C@@H](O)[C@H](CO)O2)c(=O)[nH]c1=O :: 37.6

Now for the compound whose % SURVIVAL TUMOR we want.
Form: item O=c1[nH]cc(F)c(=O)[nH]1 [Example 5-FU, 5-fluorouracil, reference compound] ; test system OM-1 (colon); % SURVIVAL TUMOR: 1.7

---

Test system: OM-1 (colon)
Test: Radiometric growth inhibition of tumor cells, OM-1
Format: cell-based, human
Settings: Homo sapiens; OM-1; concentration required to kill 50%; read-out: IC 50
From the text: CELL LINES: Eight different established human cell lines CALU (lung), COLO320 (colon), H578St (breast), HT-29 (colon), MCF-7 (breast), OM-1 (colon), SKLU (lung) and SKMES(lung), and two control cell lines (bone marrow and/or fibroblast cells) were utilized. All cell lines were obtained from the Tumor Cloning Laboratory, Institute for Drug Development, Cancer Therapy and Research Center, San Antonio, Tex. […]
Listed next: entries and their corresponding log10 IC50.
Kindly note that the scale is log10 and the underlying IC50 is in mg/L.

Cc1cn([C@@H]2C[C@@H](O)[C@H](CO)O2)c(=O)[nH]c1=O :: 0.81
O=c1ccn2c(n1)O[C@H]1[C@@H](O)[C@H](CO)O[C@H]12 :: 0.47

log10 IC50 measured on O=c1[nH]c(=O)n([C@@H]2O[C@@H](CO)[C@H](O)[C@@H]2O)cc1F = -0.06

log10 IC50 measured on Nc1nc(O)c2ncn([C@H]3O[C@@H](CO)[C@H](O)[C@@H]3O)c2n1 = -1.01

log10 IC50 measured on O=c1ccn([C@H]2O[C@@H](CO)[C@H](O)[C@@H]2O)c(=O)[nH]1 = -1.03

log10 IC50 measured on Nc1ncnc2c1ncn2[C@H]1O[C@@H](CO)[C@H](O)[C@@H]1O = 0.63
